pIC50: −log10 of the molar value.
Record type: pIC50 measurement. Applies to: Sodium-dependent serotonin transporter (Homo sapiens, UniProt P31645)

# compound, pIC50
data = [
    ("CN[C@@H](CCOc1ccc([N+](=O)[O-])cc1)c1ccc(OC(=O)N(C)C)cc1", 7.38),
    ("NC(=O)c1ccc2c(c1)CCOC2CCN1CC=C(c2c[nH]c3cc(F)ccc23)CC1 (stereo not drawn)", 9.96),
    ("CN(C)C[C@@H]1C2CCC(CC2)[C@@H]1c1cccc(Cl)c1", 6.57),
    ("COc1cccc2c1CCCC2CN(C)CCc1cccc(F)c1 (stereo not drawn)", 6.80),
    ("COc1cccc2c1CCCC2CN(C)CCc1ccc2c(c1)OCO2 (stereo not drawn)", 7.68),
    ("CCN(CC)C(=O)[C@@]1(c2ccccc2)CC1CNCC(O)COc1cccc2[nH]ccc12 (stereo partly drawn)", 6.92),
    ("CN(C)C(=O)Oc1ccc2c(c1)C=CCN(C)[C@@H]2CCOc1ccc([N+](=O)[O-])cc1", 8.22),
    ("C[C@@H]1CN(c2cccc3cc(F)ccc23)CCN1CCC1OCCc2c1sc(C(N)=O)c2Cl (stereo partly drawn)", 8.68),
]

* * *

# testedTarget: 5-hydroxytryptamine receptor 1A (Homo sapiens)
# Sequence (P08908 whole entry): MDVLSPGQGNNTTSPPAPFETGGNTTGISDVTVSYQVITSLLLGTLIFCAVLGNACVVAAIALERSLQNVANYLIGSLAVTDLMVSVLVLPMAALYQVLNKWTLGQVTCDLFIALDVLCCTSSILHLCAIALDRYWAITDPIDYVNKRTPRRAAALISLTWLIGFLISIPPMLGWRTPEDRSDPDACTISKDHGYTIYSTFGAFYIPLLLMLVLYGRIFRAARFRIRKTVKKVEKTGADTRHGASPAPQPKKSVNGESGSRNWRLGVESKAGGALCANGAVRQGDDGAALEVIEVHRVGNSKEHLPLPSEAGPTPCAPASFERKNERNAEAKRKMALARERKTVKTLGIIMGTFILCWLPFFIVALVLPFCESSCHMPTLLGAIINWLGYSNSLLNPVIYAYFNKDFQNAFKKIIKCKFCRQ
pKi: −log10 of the molar value.
Recorded measurements of pKi, one per entry

# compound, pKi
data = [
    ("COc1cccc2c1CCC[C@H]2CN(C)CCc1ccc2ccoc2c1", 8.70),
    ("CN(C)CC(O)COc1cccc2[nH]ccc12 (stereo unspecified)", 7.62),
    ("COc1cccc2c1CCCC2CN(C)CCc1ccc2c(c1)OCO2 (stereo unspecified)", 8.17),
    ("CN1[C@@H]2CC[C@H]1C[C@@H](OC(=O)c1c[nH]c3ccccc13)C2", 8.28),
    ("CCN(CC)C(=O)[C@@]1(c2ccccc2)CC1CNCC(O)COc1cccc2[nH]ccc12 (stereo partly specified)", 7.35),
    ("COc1cccc2c1CCCC2CN(C)CCc1cccc(F)c1 (stereo unspecified)", 8.49),
]

* * *

# testedTarget: Substance-P receptor (Homo sapiens, UniProt P25103)
# Sequence (P25103 whole entry): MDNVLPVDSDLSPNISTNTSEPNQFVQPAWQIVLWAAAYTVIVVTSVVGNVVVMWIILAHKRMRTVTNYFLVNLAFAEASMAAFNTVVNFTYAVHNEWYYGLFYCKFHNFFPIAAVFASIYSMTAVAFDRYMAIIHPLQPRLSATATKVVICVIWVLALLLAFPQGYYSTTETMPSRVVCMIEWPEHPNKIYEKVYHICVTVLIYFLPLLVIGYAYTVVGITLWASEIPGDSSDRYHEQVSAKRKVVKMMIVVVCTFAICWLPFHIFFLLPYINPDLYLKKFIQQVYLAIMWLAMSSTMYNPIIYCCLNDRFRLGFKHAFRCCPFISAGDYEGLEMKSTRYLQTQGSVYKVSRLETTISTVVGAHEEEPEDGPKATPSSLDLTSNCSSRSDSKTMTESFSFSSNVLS
measuredMetric: IC50 (nM)

# smilesEntry, measuredMetric, readoutUnits, experimentalValue
measured = [
    ("CN(C(=O)c1cc(C(F)(F)F)cc(C(F)(F)F)c1)[C@@H](/C=C/C(=O)NCCN1CCCCC1)Cc1ccc(Cl)cc1", "IC50", "nM", 10),
]
